Hi there, I'd appreciate the recorded IC50 for every entry that follows.
SUBJECT_OF_TEST: indoleamine 2,3-dioxygenase (IDO) in Hela cells (Homo sapiens (Human))
Sequence (P14902 whole entry): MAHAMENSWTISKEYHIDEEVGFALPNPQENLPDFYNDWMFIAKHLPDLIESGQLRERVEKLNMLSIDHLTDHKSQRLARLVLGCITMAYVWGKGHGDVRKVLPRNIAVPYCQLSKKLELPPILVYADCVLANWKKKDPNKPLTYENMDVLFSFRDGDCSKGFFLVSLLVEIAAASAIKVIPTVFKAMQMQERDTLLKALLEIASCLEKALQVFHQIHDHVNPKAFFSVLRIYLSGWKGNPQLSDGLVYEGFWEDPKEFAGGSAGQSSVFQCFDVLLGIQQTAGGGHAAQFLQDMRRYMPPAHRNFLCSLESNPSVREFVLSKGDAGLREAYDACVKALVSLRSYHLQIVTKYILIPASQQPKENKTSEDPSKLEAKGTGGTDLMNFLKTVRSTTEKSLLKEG
MEASUREMENT_NOTES: IDO intracellular activity inhibition testing in Hela cells induced by IFN-γ (Ehrlich method)
CONDITION_SUMMARY: 24 hours, OD490, 8 concentration points

Known IC50 results, listed for orientation:
>  <COMPOUND>
O=C(Cc1c(-c2ccccc2)ccc2cncn12)Nc1ccc(C(=O)NCCCN2CCOCC2)cc1

>  <SUBJECT_OF_TEST>
indoleamine 2,3-dioxygenase (IDO) in Hela cells (Homo sapiens (Human))

>  <EXPERIMENTAL_VALUE>
< 1 µM

$$$$
>  <COMPOUND>
O=C(Cc1c(-c2ccccc2)ccc2cncn12)Nc1ccc(-c2cn[nH]c2)cc1

>  <SUBJECT_OF_TEST>
indoleamine 2,3-dioxygenase (IDO) in Hela cells (Homo sapiens (Human))

>  <EXPERIMENTAL_VALUE>
< 1 µM

$$$$
>  <COMPOUND>
N#Cc1ccc(NC(=O)Cc2c(-c3ccccc3)ccc3cncn23)cc1

>  <SUBJECT_OF_TEST>
indoleamine 2,3-dioxygenase (IDO) in Hela cells (Homo sapiens (Human))

>  <EXPERIMENTAL_VALUE>
< 1 µM

$$$$
>  <COMPOUND>
N#Cc1ccc(NC(=O)Nc2c(-c3ccccc3F)ccc3cncn23)cc1

>  <SUBJECT_OF_TEST>
indoleamine 2,3-dioxygenase (IDO) in Hela cells (Homo sapiens (Human))

>  <EXPERIMENTAL_VALUE>
< 1 µM

$$$$
>  <COMPOUND>
N#Cc1ccc(NC(=O)Nc2c(C3=CCCC3)ccc3cncn23)cc1

>  <SUBJECT_OF_TEST>
indoleamine 2,3-dioxygenase (IDO) in Hela cells (Homo sapiens (Human))

>  <EXPERIMENTAL_VALUE>
1 to 10 µM

$$$$

For every item in the list below, what is its measured IC50?
1. N#CC1CCC(NC(=O)Nc2c(-c3ccccc3)ccc3cncn23)CC1 (centres unmarked)
2. N#Cc1ccc(NC(=O)Nc2c(Cl)ccc3cncn23)cc1

< 1 µM
1 to 10 µM

For every item in the list below, what is its measured IC50?
1. O=C(Cc1c(-c2ccccc2)ccc2cncn12)Nc1cn[nH]c1
2. N#Cc1ccc(NC(=O)Nc2c(-c3ccc(F)cc3)ccc3cncn23)cc1
3. N#Cc1ccc(NC(=O)Nc2c(-c3cccc(F)c3)ccc3cncn23)cc1
4. N#Cc1ccc(NC(=O)Nc2c(-c3ccccc3)ccc3cncn23)cc1
5. N#Cc1ccc(NC(=O)C(O)c2c(-c3ccccc3)ccc3cncn23)cc1 (centres unmarked)
6. O=C(Cc1c(-c2ccccc2)ccc2cncn12)Nc1cc[nH]n1
7. O=C(Cc1c(-c2ccccc2)ccc2cncn12)Nc1ccc(C(=O)NCCN2CCOCC2)cc1

["1 to 10 µM", "1 to 10 µM", "< 1 µM", "< 1 µM", "< 1 µM", "1 to 10 µM", "< 1 µM"]

* * *

Hi there, I'd appreciate the recorded IC50 for every entry that follows.
SUBJECT_OF_TEST: full-length human recombinant IDO1 protein (Homo sapiens (Human))
MEASUREMENT_NOTES: IDO enzyme activity inhibition testing (Ehrlich method)
CONDITION_SUMMARY: OD490, 10 concentration points

>  <SUBSTANCE_SMILES>
O=C(Cc1c(-c2ccccc2)ccc2cncn12)Nc1ccc(C(=O)N2CCOCC2)cc1

>  <IC50>
< 250 nM

$$$$
>  <SUBSTANCE_SMILES>
N#Cc1ccc(N(O)C(=O)Cc2c(-c3ccccc3)ccc3cncn23)cc1

>  <IC50>
< 250 nM

$$$$
>  <SUBSTANCE_SMILES>
COc1cc(C#N)ccc1NC(=O)Nc1c(-c2ccccc2)ccc2cncn12

>  <IC50>
< 250 nM

$$$$

For every item in the list below, what is its measured IC50?
1. O=C(Nc1ccc(Cl)cc1)Nc1cccc2cncn12
2. CC(C)(O)CNCc1c(-c2ccccc2)ccc2cncn12
3. O=C(Cc1c(-c2ccccc2)ccc2cncn12)Nc1ccc(C(=O)NCCN2CCOCC2)cc1
4. N#Cc1ccc(NC(=O)Nc2c(-c3ccccc3)ccc3cncn23)cn1
5. O=C(Cc1c(-c2ccccc2)ccc2cncn12)Nc1cc[nH]n1
6. O=C(Nc1ccc(C(=O)NCCO)cc1)Nc1c(-c2ccccc2)ccc2cncn12
7. N#Cc1ccc(NC(=O)Nc2c(-c3ccccc3F)ccc3cncn23)cc1

1. 250 to 1500 nM
2. < 250 nM
3. < 250 nM
4. < 250 nM
5. < 250 nM
6. 250 to 1500 nM
7. < 250 nM

Look up IC50: `COc1cc(NC(=O)Nc2c(-c3ccccc3)ccc3cncn23)ccc1C#N`
< 250 nM

* * *

SUBJECT_OF_TEST: full-length human recombinant IDO1 protein (Homo sapiens (Human))
MEASUREMENT_NOTES: IDO enzyme activity inhibition testing (Ehrlich method)
CONDITION_SUMMARY: OD490, 10 concentration points
pIC50: −log10 of the molar value.
Hi there, I'd appreciate the recorded pIC50 for every entry that follows.

Known pIC50 results, listed for orientation:
>  <SUBSTANCE_SMILES>
O=C(Nc1ccc(C(=O)O)cc1)Nc1c(-c2ccccc2)ccc2cncn12

>  <EXPERIMENTAL_VALUE>
5.82 to 6.60

$$$$
>  <SUBSTANCE_SMILES>
CCOc1ccc2cncn2c1NC(=O)Nc1ccc(C#N)cc1

>  <EXPERIMENTAL_VALUE>
5.82 to 6.60

$$$$
>  <SUBSTANCE_SMILES>
O=C(Cc1c(-c2ccccc2)ccc2cncn12)Nc1ccc(C(=O)NCCCN2CCOCC2)cc1

>  <EXPERIMENTAL_VALUE>
> 6.60

$$$$
>  <SUBSTANCE_SMILES>
N#Cc1ccc(CNCc2c(-c3ccccc3)ccc3cncn23)cc1

>  <EXPERIMENTAL_VALUE>
> 6.60

$$$$
>  <SUBSTANCE_SMILES>
N#Cc1ccc(NC(=O)Nc2c(Cl)ccc3cncn23)cc1

>  <EXPERIMENTAL_VALUE>
> 6.60

$$$$

For every item in the list below, what is its measured pIC50?
1. O=C(Cc1c(-c2ccccc2)ccc2cncn12)Nc1cn[nH]c1
2. CNC(=O)c1ccc(NC(=O)Nc2c(-c3ccccc3)ccc3cncn23)cc1
3. N#Cc1ccc(NC(=O)Nc2c(-c3ccc(F)cc3)ccc3cncn23)cc1
4. N#Cc1ccc(NC(=O)Cc2cc(Cl)cc3[nH]ncc23)cc1
5. N#Cc1ccc(NC(=O)Nc2cc(Cl)cc3cncn23)cc1
6. N#Cc1ccc(NC(=O)Nc2c(C3=CCCC3)ccc3cncn23)cc1
7. N#Cc1ccc(NC(=O)Nc2c(F)ccc3cncn23)cc1
8. COCCn1cc(-c2ccc(NC(=O)Cc3c(-c4ccccc4)ccc4cncn34)cc2)cn1

1: 5.82 to 6.60; 2: 5.82 to 6.60; 3: 5.82 to 6.60; 4: 5.82 to 6.60; 5: > 6.60; 6: > 6.60; 7: > 6.60; 8: > 6.60

* * *

SUBJECT_OF_TEST: full-length human recombinant IDO1 protein (Homo sapiens (Human), UniProt P14902)
Sequence (P14902 whole entry): as above
MEASUREMENT_NOTES: IDO enzyme activity inhibition testing (Ehrlich method)
CONDITION_SUMMARY: OD490, 10 concentration points
READOUT_NAME: IC50

Known IC50 results, listed for orientation:
>  <SUBSTANCE_SMILES>
COc1ccc2cncn2c1NC(=O)Nc1ccc(C#N)cc1

>  <EXPERIMENTAL_VALUE>
250 to 1500 nM

$$$$
>  <SUBSTANCE_SMILES>
N#Cc1ccc(NC(=O)Nc2c(-c3ccccc3)ccc3cncn23)nc1

>  <EXPERIMENTAL_VALUE>
250 to 1500 nM

$$$$
>  <SUBSTANCE_SMILES>
CC(C)CNCc1c(-c2ccccc2)ccc2cncn12

>  <EXPERIMENTAL_VALUE>
250 to 1500 nM

$$$$

For every item in the list below, what is its measured IC50?
1. N#Cc1ccc(NC(=O)Nc2c(-c3cccc(F)c3)ccc3cncn23)cc1
2. N#Cc1ccc(NC(=O)Nc2cccc3cncn23)cc1
3. O=C(Cc1c(-c2ccccc2)ccc2cncn12)Nc1ccc(-c2cn[nH]c2)cc1
4. NC(=O)c1ccc(NC(=O)Nc2c(-c3ccccc3)ccc3cncn23)cc1
5. N#Cc1ccc(NC(=O)Cc2c(-c3ccccc3)ccc3cncn23)c(CO)c1
6. N#Cc1ccc(NC(=O)Cc2c(-c3ccccc3)ccc3cncn23)cc1

< 250 nM
250 to 1500 nM
< 250 nM
250 to 1500 nM
250 to 1500 nM
< 250 nM

* * *

SUBJECT_OF_TEST: full-length human recombinant IDO1 protein (Homo sapiens (Human))
MEASUREMENT_NOTES: IDO enzyme activity inhibition testing (Ehrlich method)
CONDITION_SUMMARY: OD490, 10 concentration points
pIC50: −log10 of the molar value.
Hi there, I'd appreciate the recorded pIC50 for every entry that follows.

Known pIC50 results, listed for orientation:
>  <SUBSTANCE_SMILES>
N#Cc1ccc(NC(=O)Cc2cc(Cl)cc3cncn23)cc1

>  <EXPERIMENTAL_VALUE>
> 6.60

$$$$
>  <SUBSTANCE_SMILES>
COC1CCN(C(=O)c2ccc(NC(=O)Cc3c(-c4ccccc4)ccc4cncn34)cc2)CC1

>  <EXPERIMENTAL_VALUE>
> 6.60

$$$$
>  <SUBSTANCE_SMILES>
c1ccc(CNCc2c(-c3ccccc3)ccc3cncn23)cc1

>  <EXPERIMENTAL_VALUE>
5.82 to 6.60

$$$$
>  <SUBSTANCE_SMILES>
N#Cc1ccc(NC(=O)Nc2c(-c3ccccc3)ccc3cncn23)cc1

>  <EXPERIMENTAL_VALUE>
> 6.60

$$$$
>  <SUBSTANCE_SMILES>
CN(Cc1ccc(C#N)cc1)Cc1c(-c2ccccc2)ccc2cncn12

>  <EXPERIMENTAL_VALUE>
5.82 to 6.60

$$$$

Let's switch to this molecule now.
GET /values?readout=pIC50&system=full-length human recombinant IDO1 protein (Homo sapiens (Human))&item= `c1ccc(-c2ccc3cncn3c2CNCC2CCCCC2)cc1`
5.82 to 6.60
